target: Cyclophilin A (Homo sapiens); construct: made in house; assay: AlphaLISA inhibition of binding of biotinylated Cyclosporin A to FLAG tagged Cyclophilin A; conditions: AlphaLISA signal; test concentration not given
Where a SMILES comes first, the peptide text is derived from it. [ ]: non-standard residue; d: D form. MeBmt = C/C=C/C[C@@H](C)[C@@H](O)[C@H](NC)C(=O)O; NMeY = CN[C@@H](Cc1ccc(O)cc1)C(=O)O; NMeF = CN[C@@H](Cc1ccccc1)C(=O)O; NMeL = CN[C@@H](CC(C)C)C(=O)O; NMeNva = CCC[C@H](NC)C(=O)O; NMeV = CN[C@H](C(=O)O)C(C)C; NMeA = CN[C@@H](C)C(=O)O; Abu = CC[C@H](N)C(=O)O; Sar = CNCC(=O)O
Values of % signal greater than or equal to 2% map to Satisfied; values below map to Not satisfied.

Has C/C=C/C[C@@H](C)[C@@H](O)[C@H]1C(=O)N[C@@H](CC)C(=O)N(C)CC(=O)N(C)[C@@H](Cc2ccc(O)cc2)C(=O)N[C@@H](C(C)C)C(=O)N(C)[C@@H](C)C(=O)N[C@@H](CC(C)C)C(=O)N[C@H](C)C(=O)N(C)[C@@H](CC(C)C)C(=O)N(C)[C@@H](CC(C)C)C(=O)N(C)[C@@H](C(C)C)C(=O)N1C [Compound C88] (cyclo([MeBmt][Abu][Sar][NMeY]V[NMeA]L[dA][NMeL][NMeL][NMeV])) a recorded % signal greater than or equal to 2%?
Satisfied

Say whether C/C=C/C[C@@H](C)[C@@H](O)[C@H]1C(=O)N[C@@H](CC)C(=O)N(C)CC(=O)N(C)[C@@H](CCCC)C(=O)N[C@@H](C(C)C)C(=O)N(C)[C@@H](CC(C)C)C(=O)N[C@@H](C)C(=O)N[C@H](C)C(=O)N(C)[C@@H](CC(C)C)C(=O)N(C)[C@@H](CC(C)C)C(=O)N(C)[C@@H](C(C)C)C(=O)N1C [Compound C43] shows % signal of 2% or more.
Not satisfied

Dear colleague, could you confirm whether C/C=C/C[C@@H](C)[C@@H](O)[C@H]1C(=O)N[C@@H](CC)C(=O)N(C)CC(=O)N(C)[C@@H](C)C(=O)N[C@@H](C)C(=O)N(C)CC(=O)N[C@@H](C)C(=O)N[C@H](C)C(=O)N(C)[C@@H](CC(C)C)C(=O)N(C)[C@@H](CC(C)C)C(=O)N(C)[C@@H](C(C)C)C(=O)N1C [Compound C18] (cyclo([MeBmt][Abu][Sar][NMeA]A[Sar]A[dA][NMeL][NMeL][NMeV])) has % signal at or above 2%?
Satisfied

Please indicate if the recorded % signal for C/C=C/C[C@@H](C)[C@@H](O)[C@H]1C(=O)N[C@@H](CC)C(=O)N(C)CC(=O)N(C)[C@@H](CCC)C(=O)N[C@@H](CC(C)C)C(=O)N(C)[C@@H](CC(C)C)C(=O)N[C@@H](CC(C)C)C(=O)N[C@H](C)C(=O)N(C)[C@@H](CC(C)C)C(=O)N(C)[C@@H](CC(C)C)C(=O)N(C)[C@@H](C(C)C)C(=O)N1C [Compound C66] (cyclo([MeBmt][Abu][Sar][NMeNva]L[NMeL]L[dA][NMeL][NMeL][NMeV])) meets or exceeds 2%.
Satisfied

Entry C/C=C/C[C@@H](C)[C@@H](O)[C@H]1C(=O)N[C@@H](CC)C(=O)N(C)CC(=O)N(C)[C@@H](Cc2ccccc2)C(=O)N[C@@H](C(C)C)C(=O)N(C)CC(=O)N[C@@H](C)C(=O)N[C@H](C)C(=O)N(C)[C@@H](CC(C)C)C(=O)N(C)[C@@H](CC(C)C)C(=O)N(C)[C@@H](C(C)C)C(=O)N1C [Compound C27] (cyclo([MeBmt][Abu][Sar][NMeF]V[Sar]A[dA][NMeL][NMeL][NMeV])) : is its % signal no less than 2%?
Satisfied

====

Provide the reported % signal of each item.
biological target: Cyclophilin A (Homo sapiens); construct: made in house; assay: AlphaLISA inhibition of binding of biotinylated Cyclosporin A to FLAG tagged Cyclophilin A; details: AlphaLISA signal; test concentration not given
Where a SMILES comes first, the peptide text is derived from it. [ ]: non-standard residue; d: D form. MeBmt = C/C=C/C[C@@H](C)[C@@H](O)[C@H](NC)C(=O)O; NMeY = CN[C@@H](Cc1ccc(O)cc1)C(=O)O; NMeL = CN[C@@H](CC(C)C)C(=O)O; Tle = CC(C)(C)[C@H](N)C(=O)O; NMeNva = CCC[C@H](NC)C(=O)O; NMeV = CN[C@H](C(=O)O)C(C)C; NMeA = CN[C@@H](C)C(=O)O; Abu = CC[C@H](N)C(=O)O; Sar = CNCC(=O)O
Hi! Could you send only the number? It should be in %, unit omitted.

The molecule C/C=C/C[C@@H](C)[C@@H](O)[C@H]1C(=O)N[C@@H](CC)C(=O)N(C)CC(=O)N(C)[C@@H](C(C)C)C(=O)N[C@@H](C(C)C)C(=O)N(C)[C@@H](CC(C)C)C(=O)N[C@@H](CC)C(=O)N[C@H](C)C(=O)N(C)[C@@H](CC(C)C)C(=O)N(C)[C@@H](CC(C)C)C(=O)N(C)[C@@H](C(C)C)C(=O)N1C [Compound C101] (cyclo([Abu][Sar][NMeV]V[NMeL][Abu][dA][NMeL][NMeL][NMeV][MeBmt])) , tested on Cyclophilin A (Homo sapiens), showed % signal of 0.15

The reported % signal value, Cyclophilin A (Homo sapiens), for C/C=C/C[C@@H](C)[C@@H](O)[C@H]1C(=O)N[C@@H](CC)C(=O)N(C)CC(=O)N(C)[C@@H](Cc2ccc(O)cc2)C(=O)N[C@@H](C(C)(C)C)C(=O)N(C)[C@@H](C)C(=O)N[C@@H](CC(C)C)C(=O)N[C@H](C)C(=O)N(C)[C@@H](CC(C)C)C(=O)N(C)[C@@H](CC(C)C)C(=O)N(C)[C@@H](C(C)C)C(=O)N1C [Compound C76] (cyclo([MeBmt][Abu][Sar][NMeY][Tle][NMeA]L[dA][NMeL][NMeL][NMeV])) reads 5.09

Fill in: Cyclophilin A (Homo sapiens) % signal for C/C=C/C[C@@H](C)[C@@H](O)[C@H]1C(=O)N[C@@H](CC)C(=O)N(C)CC(=O)N(C)[C@@H](CCC)C(=O)N[C@@H](C(C)C)C(=O)N(C)[C@@H](C)C(=O)N[C@@H](CC(C)C)C(=O)N[C@H](C)C(=O)N(C)[C@@H](CC(C)C)C(=O)N(C)[C@@H](CC(C)C)C(=O)N(C)[C@@H](C(C)C)C(=O)N1C [Compound C90] (cyclo([Abu][Sar][NMeNva]V[NMeA]L[dA][NMeL][NMeL][NMeV][MeBmt])) = 6.46

====

Molecular target: Cyclophilin A (Homo sapiens, UniProt P62937)
Construct: made in house
Sequence (P62937 whole entry, species assumed): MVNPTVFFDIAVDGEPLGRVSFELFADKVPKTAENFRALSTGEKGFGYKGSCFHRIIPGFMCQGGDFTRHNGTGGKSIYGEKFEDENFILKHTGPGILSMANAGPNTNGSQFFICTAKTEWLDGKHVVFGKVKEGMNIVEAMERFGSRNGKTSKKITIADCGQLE
Experiment: AlphaLISA inhibition of binding of biotinylated Cyclosporin A to FLAG tagged Cyclophilin A
Settings: test concentration not given
Protocol: The binding of compounds of the invention to Cyclophilin A can be determined using the following protocol. […] Add 20 uL of 6 nM Biotinylated CsA working stock to each well of the 96-well plate. […] Protect plate from light until reading on Biotek Synergy2 Plate Reader; Alphalisa 96-well protocol (680 excitation/615 emission).
Where a SMILES comes first, the peptide text is derived from it. [ ]: non-standard residue; d: D form. MeBmt = C/C=C/C[C@@H](C)[C@@H](O)[C@H](NC)C(=O)O; NMeL = CN[C@@H](CC(C)C)C(=O)O; NMeV = CN[C@H](C(=O)O)C(C)C; dNMeA = CN[C@H](C)C(=O)O; Abu = CC[C@H](N)C(=O)O; Sar = CNCC(=O)O
metric: % inhibition of CsA binding to Cyclophilin A
Please answer using a numeric value trailed by its unit.

GET /value?item= C/C=C/C[C@@H](C)[C@@H](O)[C@H]1C(=O)N[C@@H](CC)C(=O)N(C)CC(=O)N(C)CC(=O)N[C@@H](C(C)C)C(=O)N(C)[C@@H](CC(C)C)C(=O)N[C@@H](CC(C)C)C(=O)N[C@H](C)C(=O)N(C)[C@@H](CC(C)C)C(=O)N(C)[C@@H](CC(C)C)C(=O)N(C)[C@@H](C(C)C)C(=O)N1C [Compound C49] (cyclo([MeBmt][Abu][Sar][Sar]V[NMeL]L[dA][NMeL][NMeL][NMeV])) &field=% inhibition of CsA binding to Cyclophilin A returns 80.59%

C/C=C/C[C@@H](C)[C@@H](O)[C@H]1C(=O)N[C@@H](CC)C(=O)N(C)CC(=O)N(C)[C@H](C)C(=O)N[C@@H](CC(C)C)C(=O)N(C)[C@@H](CC(C)C)C(=O)N[C@@H](CC(C)C)C(=O)N[C@H](C)C(=O)N(C)[C@@H](CC(C)C)C(=O)N(C)[C@@H](CC(C)C)C(=O)N(C)[C@@H](C(C)C)C(=O)N1C [Compound C59] (cyclo([MeBmt][Abu][Sar][dNMeA]L[NMeL]L[dA][NMeL][NMeL][NMeV])) yielded % inhibition of CsA binding to Cyclophilin A of 88.24%

Reference source for all entries: patent US20200199102A1
